# Tested on: Inhibin beta A chain (activin A)
# Experiment description: INHBA (activin A) binders on microarrays, primary screen, biochemical, small-molecule microarray, 635 nm fluorescence scan (AID 1107);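 note: mouse activin A protein probed at 4.33 µg/mL on printed slides; score merges bound-protein fluorescence near 667 nm with spot signal-to-noise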
# Particulars: small-molecule microarray binding, higher = more signal
Outcome label depends on composite z-score relative to 0.5: at/above gives Fulfilled, below gives Not fulfilled.

Reference set, count: 5
C=CCOC(=O)[C@H]1[C@@H]2C(=O)O[C@@H](c3ccccc3)[C@@H](c3ccccc3)N2[C@@H](c2ccc(OCCOC(=O)[C@@H]3C[C@@H]4C(=O)N5CCC[C@H]5C(=O)N4[C@@H]3c3ccc(O)cc3)cc2)[C@]12C(=O)Nc1ccccc12 | Not fulfilled
CC(C)OC(=O)CC(=O)CC(O)c1ccc(C#N)cc1 (stereo not given) | Fulfilled
C=CC[C@@H](OC(=O)Nc1ccc(OC)cc1)c1ccc(O)c2ccccc12 | Fulfilled
CC(C)=CCCC(C)=CC(O)C1C=CC2C(=O)N(c3ccccc3)C(=O)C2N1Nc1ccccc1 (stereo not given) | Fulfilled
CCOc1cc(C(O)C2C=CC3C(=O)N(c4ccccc4)C(=O)C3N2Nc2ccc([N+](=O)[O-])cc2)ccc1O (stereo not given) | Not fulfilled

Ask: I'd appreciate it if you could say whether `CCOC(=O)[C@H]1C/C=C/C[C@H](C(=O)OCC)C(=O)O[C@H]2[C@@H](OC)O[C@H](CO)[C@@H](OC(=O)Nc3ccc4c(c3)OCO4)[C@@H]2OC1=O` has composite z-score at least equal to 0.5.
Result: Not fulfilled

Ask: I'd appreciate it if you could say whether N#Cc1ccc(NN2C(C(O)C3CCCCC3)C=CC3C(=O)N(c4ccccc4)C(=O)C32)cc1 (stereo not given) has composite z-score at least equal to 0.5.
Result: Not fulfilled

Ask: I'd appreciate it if you could say whether `[N-]=[N+]=Nc1ccccc1C[C@]1(C(=O)NCCN2CCOCC2)N=C(c2ccc(OCCCO)cc2)O[C@H]1c1ccccc1` has composite z-score at least equal to 0.5.
Result: Not fulfilled

Ask: I'd appreciate it if you could say whether `COC(=O)[C@@]1(Cc2ccc(F)cc2)[C@H]2c3cc(C(=O)N4CCCC4)n(Cc4cccc5ccccc45)c3C[C@H]2CN1C(=O)c1ccccc1` has composite z-score at least equal to 0.5.
Result: Fulfilled
